// provenance: patent US11013696B2

# protocol: Percent encapsulation of mRNA in lipid nanoparticles (Quant-iT Ribogreen)
# Assay type: physicochemical
# particulars: Table 2; leptin mRNA in LNP with the cationic lipid
value.kind: % encapsulation mRNA Leptin (%)

compound	% encapsulation mRNA Leptin [%]
CCCCC/C=C\C/C=C\CCCCCCCCC(CCOC(=O)CCCCC(OCCCCCCCC)OCCCCCCCC)OC(=O)OCCCN(CC)CC (centres unmarked)	96.7

[P] CCCCCCCCCCCCC(CCCOC(=O)CCCCC(COC(=O)CCCCCCC)COC(=O)CCCCCCC)OC(=O)OCCCN(CC)CC (centres unmarked)
[Q] CCCCCCCCCCCCC(CCC(=O)OC(COC(=O)CCCCCCCCCCC)COC(=O)CCCCCCCCCCC)OC(=O)OCCCN(CC)CC (centres unmarked)
[R] CCCCCCCCCCCCC(CCOC(=O)CCCCC(OCCCCCCCC)OCCCCCCCC)OC(=O)[C@@H]1CCCN1C (some centres unmarked)
Please list the entries, largest % encapsulation mRNA Leptin first. Output spec: labels arranged per the requested ranking.
P, Q, R
(P: 92.9%, Q: 39.2%, R: 12.8%)

[I] CCCCCCCCCCCCC(CCOC(=O)CCCCCCC(COC(=O)CCCCCCC)COC(=O)CCCCCCC)OC(=O)OCCCN(C)C (centres unmarked)
[II] CCCCCCCCCCCCC(CCOC(=O)CCCCC(OCCCCCCCC)OCCCCCCCC)OC(=O)OCCN(CC)CC (centres unmarked)
Identify the item whose % encapsulation mRNA Leptin is the smaller number: I or II Answer format: the label of the selected item.
II
